Test: Transmittance of absorption membrane before and after reliability evaluation (Test Example 1)
Type: physicochemical
Conditions: silicone resin membrane; after 85° C., 85% RH, 120 hours
Method: The transmittance spectrum was measured using a spectrophotometer (Manufacturer: Perkinelmer, Product Name: Lambda 750 Spectrophotometer) on a specimen obtained by cutting the measurement object (e.g., an absorption membrane) so that the width and height were 10 mm and 10 mm, respectively. The transmittance spectrum was measured for each wavelength according to the equipment manual. […]
466~480 nm Tmin, A values by entry

{"compound": "CC1(C)C(/C=C/C2=C(Cl)C(=C/C=C3\\N(C[Si](C)(C)C)c4ccccc4C3(C)C)/CC2)=[N+](C[Si](C)(C)C)c2ccccc21 [Embodiment 3]", "466~480 nm Tmin, A": "88.2%"}
{"compound": "CCCCN1/C(=C\\C=C2/CCC(/C=C/C3=[N+](CCCC)c4ccccc4C3(C)C)=C2Cl)C(C)(C)c2ccccc21 [Comparative Example 3]", "466~480 nm Tmin, A": "87.5%"}
{"compound": "CC1(C)C(/C=C/C=C/C=C/C=C2\\N(C[Si](C)(C)C)c3ccccc3C2(C)C)=[N+](C[Si](C)(C)C)c2ccccc21 [Embodiment 1]", "466~480 nm Tmin, A": "90.7%"}
{"compound": "CCCCN1\\C(=C/C=C/C=C/C=C/C2=[N+](CCCC)c3ccc4ccccc4c3C2(C)C)C(C)(C)c2c1ccc1ccccc21 [Comparative Example 2]", "466~480 nm Tmin, A": "89.7%"}
{"compound": "CC1(C)C(/C=C/C=C/C=C/C=C2\\N(C[Si](C)(C)C)c3ccc4ccccc4c3C2(C)C)=[N+](C[Si](C)(C)C)c2ccc3ccccc3c21 [Embodiment 2]", "466~480 nm Tmin, A": "89.8%"}
{"compound": "CCCCN1\\C(=C/C=C/C=C/C=C/C2=[N+](CCCC)c3ccccc3C2(C)C)C(C)(C)c2ccccc21 [Comparative Example 1]", "466~480 nm Tmin, A": "89.1%"}
